# Test system: BT474
# Method summary: CDI of example compounds and Lapatinib (ATPlite cell survival)
# Type: cell-based
# Parameters: key: CDI = AB/(A×B); <1 synergistic
# Recorded conditions: compound 5 μM + Lapatinib 1 μM, 72 h; Lapatinib-sensitive human breast cancer cells; CDI<1 synergistic, <0.7 very significant, >1 antagonistic
Readout kind: CDI of example compounds and Lapatinib, BT474
Keep it simple and answer with nothing but the number.

Below: 3 compounds and their reported CDI of example compounds and Lapatinib, BT474.
{"columns": ["Compound", "Target or system", "Recorded result"],
 "data": [
  ["COc1cc(/C=C/C(=O)NC(CC(C)C)NC(=S)Nc2ccccc2)cc(OC)c1OC (centres unmarked) [Example 24]", "BT474", 1.03],
  ["Cc1ccccc1NC(=S)NC(CC(C)(C)C)NC(=O)/C=C/c1ccccc1 (centres unmarked) [Example 46]", "BT474", 0.74],
  ["COc1cc(/C=C/C(=O)NC(NC(=S)Nc2ccccc2)C(C)C)cc(OC)c1OC (centres unmarked) [Example 36]", "BT474", 0.97]
]}

Task: Can you share its CDI of example compounds and Lapatinib, BT474? I mean this compound: COc1cc(/C=C/C(=O)NC(NC(=S)NC2CCCCC2)C(C)(C)C)cc(OC)c1OC (centres unmarked) [Example 52]
Result: 0.56

---

# Tested on: BT474
# Method summary: CDI of example compounds and Lapatinib (ATPlite cell survival)
# Assay type: cell-based
# Design: key: CDI = AB/(A×B); <1 synergistic
# Recorded conditions: compound 5 μM + Lapatinib 1 μM, 72 h; Lapatinib-sensitive human breast cancer cells; CDI<1 synergistic, <0.7 very significant, >1 antagonistic
Readout kind: CDI of example compounds and Lapatinib, BT474
Keep it simple and answer with nothing but the number.

Below: 3 compounds and their reported CDI of example compounds and Lapatinib, BT474.
{"columns": ["Compound", "Recorded result"],
 "data": [
  ["COc1cc(/C=C/C(=O)NC(CC(C)C)NC(=S)Nc2ccccn2)cc(OC)c1OC (stereo not drawn)", 1.01],
  ["Cc1ccccc1NC(=S)NC(CC(C)C)NC(=O)/C=C/c1ccccc1 (stereo not drawn)", 0.84],
  ["COc1cc(/C=C/C(=O)NC(NC(=S)Nc2ccccc2)C(C)(C)C)cc(OC)c1OC (stereo not drawn)", 1.02]
]}

Task: State its CDI of example compounds and Lapatinib, BT474 on BT474: CC(C)CC(NC(=O)/C=C/c1ccccc1)NC(=S)NC1CCCCC1 (stereo not drawn)
Result: 0.77

Task: State its CDI of example compounds and Lapatinib, BT474 on BT474: CC(C)(C)C(NC(=O)/C=C/c1ccccc1)NC(=S)Nc1ccccc1 (stereo not drawn)
Result: 0.85

---

# Tested on: BT474
# Method summary: CDI of example compounds and Lapatinib (ATPlite cell survival)
# Assay type: cell-based
# Design: key: CDI = AB/(A×B); <1 synergistic
# Recorded conditions: compound 5 μM + Lapatinib 1 μM, 72 h; Lapatinib-sensitive human breast cancer cells; CDI<1 synergistic, <0.7 very significant, >1 antagonistic
Would you please tag the item MET when its CDI of example compounds and Lapatinib, BT474 is 0.9 or above, and NOT MET when it is below?

# count of solved cases: 3
{"columns": ["Compound", "Label class"],
 "data": [
  ["COc1cc(/C=C/C(=O)NC(NC(=S)Nc2ccccc2C)C(C)(C)C)cc(OC)c1OC (centres unmarked)", "MET"],
  ["COc1cc(/C=C/C(=O)NC(CC(C)(C)C)NC(=S)Nc2ccccc2)cc(OC)c1OC (centres unmarked)", "NOT MET"],
  ["COc1cc(/C=C/C(=O)NC(CC(C)(C)C)NC(=S)Nc2cccnc2)cc(OC)c1OC (centres unmarked)", "NOT MET"]
]}

Task: Hello, I need to know if O=C(/C=C/c1ccccc1)NC(NC(=S)Nc1ccccn1)C1CC1 (centres unmarked) has measured CDI of example compounds and Lapatinib, BT474 not below 0.9. Thanks!
Result: MET

Task: Hello, I need to know if COc1cc(/C=C/C(=O)NC(NC(=S)Nc2cccnc2)C(C)(C)C)cc(OC)c1OC (centres unmarked) has measured CDI of example compounds and Lapatinib, BT474 not below 0.9. Thanks!
Result: MET

Task: Hello, I need to know if CC(C)(C)CC(NC(=O)/C=C/c1ccccc1)NC(=S)Nc1ccccc1 (centres unmarked) has measured CDI of example compounds and Lapatinib, BT474 not below 0.9. Thanks!
Result: NOT MET

Task: Hello, I need to know if COc1cc(/C=C/C(=O)NC(NC(=S)Nc2ccccc2)C2CC2)cc(OC)c1OC (centres unmarked) has measured CDI of example compounds and Lapatinib, BT474 not below 0.9. Thanks!
Result: MET
